- STUDY_SYSTEM: Bcr-Abl^wt (Homo sapiens)
- Sequence (P00519 242-493 limits assumed): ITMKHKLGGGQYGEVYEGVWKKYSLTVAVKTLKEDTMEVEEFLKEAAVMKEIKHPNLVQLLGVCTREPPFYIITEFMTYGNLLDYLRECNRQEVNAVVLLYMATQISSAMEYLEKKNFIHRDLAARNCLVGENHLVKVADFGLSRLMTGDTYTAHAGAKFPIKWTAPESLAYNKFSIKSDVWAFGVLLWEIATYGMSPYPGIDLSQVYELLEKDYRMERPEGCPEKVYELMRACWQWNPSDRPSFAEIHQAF
- EXPERIMENTAL_DETAILS: Kinase activation assay (IC50), fluorescence polarization tyrosine kinase assay kit
- CONDITION_DESCRIPTION: kinase domain (Millipore), Poly (Glu, Tyr) 4:1 substrate, FP readout
- Experimental: Test 1: Kinase Activation Assay (IC50) A kinase domain (Millipore) comprising the entire cytoplasmic sequences of Bcr-Abl^wt and Bcr-Abl^T315I mutation kinases and a tyrosine kinase assay kit (Panvera, P2837) were used to measure an inhibitory activation on Bcr-abl. Other kinases such as FGFR, Flt, KDR, PDGFR, Fms, Kit, Raf, Tie2, Src, and Ret were also measured by the same method. […]
Kindly state IC50 for each of the entries shown.

Please list IC50 recorded for the compound Cc1ccc(NC(=O)c2cc(N3CCC[C@H]3C)cc(C(F)(F)F)c2)cc1NC(=O)c1csc2c(NC3CC3)ncnc12 [Example 113]
100 to 1000 nM

Using known records, supply IC50 for Cc1cn(-c2cc(NC(=O)c3ccc(C)c(NC(=O)c4csc5c(NC6CC6)ncnc45)c3)cc(C(F)(F)F)c2)c(C)n1 [Example 31]
1 to 100 nM

# return recorded IC50 for input CC(=O)OCc1ccc(NC(=O)c2ccc(C)c(NC(=O)c3csc4c(NC5CC5)ncnc34)c2)cc1C(F)(F)F [Example 23]
1 to 100 nM

Give IC50 for the following compound: CCN1CCN(c2cc(C(=O)Nc3ccc(C)c(NC(=O)c4csc5c(NC6CC6)ncnc45)c3)cc(C(F)(F)F)c2)CC1 [Example 110]
1 to 100 nM

Could you please provide reported IC50 for Cc1ccc(NC(=O)c2cc(N3CCCN(C)CC3)cc(C(F)(F)F)c2)cc1NC(=O)c1csc2c(NC3CC3)ncnc12 [Example 93] ? Thanks!
1 to 100 nM

Read off the recorded IC50 for Cc1ccc(NC(=O)c2cc(NC3CCN(C)CC3)cc(C(F)(F)F)c2)cc1NC(=O)c1csc2c(NC3CC3)ncnc12 [Example 116]
1 to 100 nM

In one line, give reported IC50 of the entry CCN1CCN(c2ccc(NC(=O)c3ccc(C)c(NC(=O)c4csc5c(NC6CC6)ncnc45)c3)cn2)CC1 [Example 30] .
1000 to 10000 nM

Give recorded IC50. Cc1ccc(NC(=O)c2ccc(C(F)(F)F)cc2)cc1NC(=O)c1csc2c(N)ncnc12 [Example 66]
100 to 1000 nM

Give the reported IC50 for this compound. Cc1ccc(C(=O)Nc2cccc(C(F)(F)F)c2)cc1NC(=O)c1csc2c(N)ncnc12 [Example 8]
1 to 100 nM

Read off the recorded IC50 for CNc1ncnc2c(C(=O)Nc3cc(NC(=O)c4cc(-n5cnc(C)c5)cc(C(F)(F)F)c4)ccc3C)csc12 [Example 78]
1 to 100 nM

Please give measured IC50 of the following entry: Cc1ccc(NC(=O)c2cc(-n3ccnc3C)cc(C(F)(F)F)c2)cc1NC(=O)c1csc2c(NC3CC3)ncnc12 [Example 83]
1 to 100 nM

Name the recorded IC50 of the compound listed here: Cc1ccc(NC(=O)c2ccc(CN3CC[C@H](N(C)C)C3)c(C(F)(F)F)c2)cc1NC(=O)c1csc2c(NC3CC3)ncnc12 [Example 76]
1 to 100 nM

Give the measured IC50 for Cc1ccc(C(=O)Nc2ccc(CO)c(C(F)(F)F)c2)cc1NC(=O)c1csc2c(NC3CC3)ncnc12 [Example 24]
1 to 100 nM

// fetch IC50 given entry Cc1ccc(NC(=O)c2cc(-n3ccnc3C)cc(C(F)(F)F)c2)cc1NC(=O)c1csc2c(N)ncnc12 [Example 61]
1 to 100 nM

Input COc1cc(Nc2ncnc3c(C(=O)Nc4cc(C(=O)Nc5cccc(C(F)(F)F)c5)ccc4C)csc23)cc(OC)c1OC [Example 14] , output reported IC50.
100 to 1000 nM

Name the recorded IC50 of the item Cc1ccc(NC(=O)c2ccc(CN3CCCN(C)CC3)c(C(F)(F)F)c2)cc1NC(=O)c1csc2c(NC3CC3)ncnc12 [Example 87] in your answer.
1 to 100 nM

Specify measured IC50 for Cc1ccc(C(=O)Nc2ccc(N3CCOCC3)nc2)cc1NC(=O)c1csc2c(NC3CC3)ncnc12 [Example 29] .
1 to 100 nM
